- Assayed Target: MAO-A (Rattus norvegicus)
- Construct: employing crude rat brain mitochondrial suspension; from tissue; host or cells: brain mitochondria of adult Wistar rats
- Sequence (P21396 1-526): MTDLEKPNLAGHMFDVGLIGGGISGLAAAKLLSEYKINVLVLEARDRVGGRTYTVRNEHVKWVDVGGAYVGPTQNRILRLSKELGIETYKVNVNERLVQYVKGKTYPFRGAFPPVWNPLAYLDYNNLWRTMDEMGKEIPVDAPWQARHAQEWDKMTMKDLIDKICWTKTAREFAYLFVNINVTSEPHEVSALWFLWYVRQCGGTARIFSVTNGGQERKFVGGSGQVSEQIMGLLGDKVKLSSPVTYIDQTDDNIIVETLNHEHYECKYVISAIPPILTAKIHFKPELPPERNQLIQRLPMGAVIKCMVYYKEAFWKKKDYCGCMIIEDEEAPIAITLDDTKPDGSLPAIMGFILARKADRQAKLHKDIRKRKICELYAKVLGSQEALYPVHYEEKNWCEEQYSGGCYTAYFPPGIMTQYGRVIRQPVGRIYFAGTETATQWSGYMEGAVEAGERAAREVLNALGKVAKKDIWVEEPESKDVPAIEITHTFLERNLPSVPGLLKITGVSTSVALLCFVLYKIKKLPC
- Test: In vitro MAO-A inhibition assay (rat brain mitochondria, serotonin substrate)
- Type: biochemical
- Condition Summary: MAO-A In vitro IC50 (µM) ± SEM, rat brain mitochondria, serotonin substrate, mean ± SEM, triplicate
Reported Property: IC50 (µM)

> print(dat)
                                   molecule             assayed.target  experimental.result
1  CC(=NNC(=O)Nc1ncc([N+](=O)[O-])s1)c1ccc([N+](=O)[O-])cc1 [Compound 8]  MAO-A (Rattus norvegicus)                 2740

* * *

- System: mice
- Test: Neurotoxicity screening (rotarod test)
- Format: in vivo
- Condition Summary: 30 mg/kg i.p., 2 h
Measured Neurotoxicity (animals that exhibit toxicity / animals tested), listed per entry.
Reported Property: Neurotoxicity (animals that exhibit toxicity / animals tested)

> print(dat)
                                    molecule  experimental.result
 1  CC(=NNC(=O)Nc1ncc([N+](=O)[O-])s1)c1ccc(O)cc1 [Compound 7]                  0/4
 2  O=C(NN=Cc1cccc(Cl)c1Cl)Nc1ncc([N+](=O)[O-])s1 [Compound 12]                  0/4
 3  O=C(NN=C(c1ccccc1)c1ccccc1)Nc1ncc([N+](=O)[O-])s1 [Compound 16]                  0/4
 4  O=C(NN=C(c1ccccc1)c1ccc(O)cc1)Nc1ncc([N+](=O)[O-])s1 [Compound 18]                  0/4
 5  O=C(NN=C1C(=O)Nc2ccc(Br)cc21)Nc1ncc([N+](=O)[O-])s1 [Compound 21]                  0/4
 6  CC(=NNC(=O)Nc1ncc([N+](=O)[O-])s1)c1ccc(Br)cc1 [Compound 4]                  0/4
 7  O=C(NN=C(CBr)c1ccc(Br)cc1)Nc1ncc([N+](=O)[O-])s1 [Compound 9]                  0/4
 8  O=C(NN=C1C(=O)Nc2ccccc21)Nc1ncc([N+](=O)[O-])s1 [Compound 20]                  0/4
 9  CC(=NNC(=O)Nc1ncc([N+](=O)[O-])s1)c1ccc(Cl)cc1 [Compound 5]                  0/4
10  O=C(NN=Cc1ccc(Cl)cc1Cl)Nc1ncc([N+](=O)[O-])s1 [Compound 13]                  0/4
11  O=C(NN=C(c1ccc(Cl)cc1)c1ccc(Cl)cc1)Nc1ncc([N+](=O)[O-])s1 [Compound 19]                  0/4
12  O=C1NC(=O)C(c2ccccc2)(c2ccccc2)N1 [Phenytoin, reference compound]                  0/4

* * *

IC50 values, listed per item
- Assayed Target: rat brain AChE (Rattus norvegicus, UniProt P37136)
- Construct: the resulting clear supernatants obtained were used as enzyme sources; from tissue; host or cells: rat brain cortex homogenate, 10,000 g supernatant
- Sequence (P37136 32-614): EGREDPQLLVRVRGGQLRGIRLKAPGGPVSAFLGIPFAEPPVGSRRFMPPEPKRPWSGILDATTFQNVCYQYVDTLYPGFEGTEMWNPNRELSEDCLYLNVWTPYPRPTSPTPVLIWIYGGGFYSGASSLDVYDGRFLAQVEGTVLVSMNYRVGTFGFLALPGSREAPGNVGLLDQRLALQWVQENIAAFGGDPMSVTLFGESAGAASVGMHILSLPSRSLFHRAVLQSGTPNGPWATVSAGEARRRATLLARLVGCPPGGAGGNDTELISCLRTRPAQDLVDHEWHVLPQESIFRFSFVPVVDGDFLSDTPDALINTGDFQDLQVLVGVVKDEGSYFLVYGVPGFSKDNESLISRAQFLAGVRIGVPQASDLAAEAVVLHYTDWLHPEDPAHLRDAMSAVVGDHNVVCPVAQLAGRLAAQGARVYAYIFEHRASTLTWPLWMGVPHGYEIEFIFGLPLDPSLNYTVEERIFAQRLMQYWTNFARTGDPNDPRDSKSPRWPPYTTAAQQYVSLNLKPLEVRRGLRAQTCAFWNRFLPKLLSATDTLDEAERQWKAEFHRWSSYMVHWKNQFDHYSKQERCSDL
- Test: biochemical
- Assay type: biochemical
- Condition Summary: rat brain AChE, ACTI substrate, mean ± SEM, triplicate; read-out: AChE In vitro IC50 (µM) ± SEM
Reported Property: IC50

> print(dat)
                                   molecule                            assayed.target  experimental.result
1  COc1ccc(OC)c(C=NNC(=O)Nc2ncc([N+](=O)[O-])s2)c1 [Compound 15]  rat brain AChE (Rattus norvegicus, UniProt P37136)               872 µM
2  O=C(NN=Cc1c(Cl)cccc1Cl)Nc1ncc([N+](=O)[O-])s1 [Compound 14]  rat brain AChE (Rattus norvegicus, UniProt P37136)              10.7 µM
3  CC(=NNC(=O)Nc1ncc([N+](=O)[O-])s1)c1ccc(Br)cc1 [Compound 4]  rat brain AChE (Rattus norvegicus, UniProt P37136)              0.34 µM
4  O=C(NN=C(c1ccccc1)c1ccc(Cl)cc1)Nc1ncc([N+](=O)[O-])s1 [Compound 17]  rat brain AChE (Rattus norvegicus, UniProt P37136)              11.5 µM
5  O=C(NN=Cc1ccc(O)cc1)Nc1ncc([N+](=O)[O-])s1 [Compound 11]  rat brain AChE (Rattus norvegicus, UniProt P37136)               584 µM
6  O=C(NN=Cc1ccc(Cl)cc1Cl)Nc1ncc([N+](=O)[O-])s1 [Compound 13]  rat brain AChE (Rattus norvegicus, UniProt P37136)               141 µM
7  O=C(NN=C1C(=O)Nc2ccc(Br)cc21)Nc1ncc([N+](=O)[O-])s1 [Compound 21]  rat brain AChE (Rattus norvegicus, UniProt P37136)             0.264 µM

* * *

- Test: physchem
- Condition Summary: octanol/water
Reported Property: logP

> print(dat)
                                chem.smiles  reported.property  experimental.result
1  O=C(NN=C(c1ccccc1)c1ccc(O)cc1)Nc1ncc([N+](=O)[O-])s1               logP                  2.9
2  O=C(NN=C1C(=O)Nc2ccccc21)Nc1ncc([N+](=O)[O-])s1               logP                  1.1
3  O=C(NN=Cc1ccc(Br)cc1)Nc1ncc([N+](=O)[O-])s1               logP                  2.5
4  O=C(NN=Cc1ccc(O)cc1)Nc1ncc([N+](=O)[O-])s1               logP                  1.6
5  CC(=NNC(=O)Nc1ncc([N+](=O)[O-])s1)c1ccc(Br)cc1               logP                  2.2

* * *

- Assayed Target: rat brain AChE (Rattus norvegicus)
- Construct: the resulting clear supernatants obtained were used as enzyme sources; from tissue; host or cells: rat brain cortex homogenate, 10,000 g supernatant
- Test: biochemical
- Type: biochemical
- Condition Summary: AChE In vitro IC50 (µM) ± SEM, rat brain AChE, ACTI substrate, mean ± SEM, triplicate
Catalogue of IC50 values
Reported Property: IC50 (µM)

> print(dat)
                                   molecule  units.symbol  experimental.result
1  O=C(NN=C(c1ccc(Cl)cc1)c1ccc(Cl)cc1)Nc1ncc([N+](=O)[O-])s1 [Compound 19]            µM                 1.45
2  CC(=NNC(=O)Nc1ncc([N+](=O)[O-])s1)c1ccc([N+](=O)[O-])cc1 [Compound 8]            µM                 45.5

* * *

- Assayed Target: MAO-B (Rattus norvegicus)
- Construct: employing crude rat brain mitochondrial suspension; from tissue; host or cells: brain mitochondria of adult Wistar rats
- Sequence (P19643 whole entry): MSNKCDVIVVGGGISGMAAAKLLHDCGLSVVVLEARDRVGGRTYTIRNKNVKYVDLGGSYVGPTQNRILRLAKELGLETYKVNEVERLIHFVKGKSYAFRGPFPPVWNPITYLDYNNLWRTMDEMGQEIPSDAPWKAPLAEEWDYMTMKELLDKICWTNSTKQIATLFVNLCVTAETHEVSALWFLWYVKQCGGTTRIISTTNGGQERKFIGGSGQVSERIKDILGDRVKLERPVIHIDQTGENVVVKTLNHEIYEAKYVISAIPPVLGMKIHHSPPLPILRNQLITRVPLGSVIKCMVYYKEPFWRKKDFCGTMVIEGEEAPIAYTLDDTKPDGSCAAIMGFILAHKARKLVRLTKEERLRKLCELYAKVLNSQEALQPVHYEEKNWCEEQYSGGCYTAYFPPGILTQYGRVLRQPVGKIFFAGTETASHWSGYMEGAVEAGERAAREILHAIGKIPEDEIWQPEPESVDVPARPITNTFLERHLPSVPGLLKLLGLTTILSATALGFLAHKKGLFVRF
- Test: biochemical
Reported Property: IC50 (µM)

> print(dat)
                                    compound  experimental.result
 1  O=C(NN=C(c1ccccc1)c1ccc(Cl)cc1)Nc1ncc([N+](=O)[O-])s1 [Compound 17]                 28.5
 2  O=C(NN=Cc1c(Cl)cccc1Cl)Nc1ncc([N+](=O)[O-])s1 [Compound 14]                 16.9
 3  O=C(NN=C(CBr)c1ccc(Br)cc1)Nc1ncc([N+](=O)[O-])s1 [Compound 9]                0.313
 4  CC(=NNC(=O)Nc1ncc([N+](=O)[O-])s1)c1ccc(F)cc1 [Compound 6]                 19.9
 5  COc1ccc(OC)c(C=NNC(=O)Nc2ncc([N+](=O)[O-])s2)c1 [Compound 15]                 11.1
 6  CC(=NNC(=O)Nc1ncc([N+](=O)[O-])s1)c1ccc(Br)cc1 [Compound 4]                0.212
 7  CC(=NNC(=O)Nc1ncc([N+](=O)[O-])s1)c1ccc(Cl)cc1 [Compound 5]                0.601
 8  O=C(NN=Cc1ccc(O)cc1)Nc1ncc([N+](=O)[O-])s1 [Compound 11]                  242
 9  O=C(NN=C(c1ccccc1)c1ccccc1)Nc1ncc([N+](=O)[O-])s1 [Compound 16]                 28.3
10  O=C(NN=Cc1ccc(Br)cc1)Nc1ncc([N+](=O)[O-])s1 [Compound 10]                 5.45
11  CC(=NNC(=O)Nc1ncc([N+](=O)[O-])s1)c1ccc([N+](=O)[O-])cc1 [Compound 8]                 23.9
12  O=C(NN=C(c1ccccc1)c1ccc(O)cc1)Nc1ncc([N+](=O)[O-])s1 [Compound 18]                  158
13  O=C(NN=C1C(=O)Nc2ccccc21)Nc1ncc([N+](=O)[O-])s1 [Compound 20]                 4.51
14  O=C(NN=Cc1cccc(Cl)c1Cl)Nc1ncc([N+](=O)[O-])s1 [Compound 12]                 8.51
15  O=C(NN=C(c1ccc(Cl)cc1)c1ccc(Cl)cc1)Nc1ncc([N+](=O)[O-])s1 [Compound 19]                 1.48
16  O=C(NN=Cc1ccc(Cl)cc1Cl)Nc1ncc([N+](=O)[O-])s1 [Compound 13]                 3.49
17  O=C(NN=C1C(=O)Nc2ccc(Br)cc21)Nc1ncc([N+](=O)[O-])s1 [Compound 21]                0.734
18  CC(=NNC(=O)Nc1ncc([N+](=O)[O-])s1)c1ccc(O)cc1 [Compound 7]                 14.8

Origin of values: paper PMC6009888
